# assay_name: Concentrations in urine of mice after a single oral administration
# Type: in vivo
# cond: mouse, 6.25 mg/kg oral, 6-24 hours, mean ±S.E., read-out: Urinary level
recorded_metric: concentration at 24 h (ng/mL)
Use ng/mL as the unit, but write only the number.

The molecule identified as CCn1cc(C(=O)O)c(=O)c2cc(F)c(N3CCNCC3)cc21 registered its concentration at 24 h at 3010

----------
# assay_name: Concentrations in urine of rats after a single oral administration
# Format: in vivo
# cond: rat, 12.5 mg/kg oral, 3-6 hours, mean ±S.E., read-out: Urinary level
recorded_metric: concentration at 6 h (ng/mL)
All answers are understood in ng/mL, so give the number only.

The value of concentration at 6 h measured for the molecule CCn1cc(C(=O)O)c(=O)c2cc(F)c(N3CCNCC3)cc21 turned out to be 16800

----------
# assay_name: Concentrations in urine of mice after a single oral administration
# Format: in vivo
# cond: mouse, 3.13 mg/kg oral, 24-27 hours, mean ±S.E., read-out: Urinary level
recorded_metric: concentration at 27 h

// field: concentration at 27 h; key: CCn1cc(C(=O)O)c(=O)c2cc(F)c(N3CCNCC3)cc21 ; value = 140 ng/mL

----------
# assay_name: Concentrations in urine of rats after a single oral administration
# Assay type: in vivo
# cond: rat, 3.13 mg/kg oral, 0-3 hours, mean ±S.E., read-out: Urinary level
recorded_metric: concentration at 3 h (ng/mL)
Answer in ng/mL, number only, no unit symbol.

The recorded concentration at 3 h for CCn1cc(C(=O)O)c(=O)c2cc(F)c(N3CCNCC3)cc21 is 3390

----------
# assay_name: Biliary excretion in rats after a single oral administration of 50 mg/kg
# cond: in vivo; rat, 50 mg/kg oral, 0-27 hours, mean ±S.E.; read-out: Biliary excretion, cumulative recovery
recorded_metric: dose excreted at 27 h (%)
Report only the number, with the unit % understood.

# dose excreted at 27 h (molecule: CCn1cc(C(=O)O)c(=O)c2ccc(C)nc21 ) is 1.33

----------
# assay_name: Concentrations in urine of rats after a single oral administration
# Type: in vivo
# cond: rat, 6.25 mg/kg oral, 0-3 hours, mean ±S.E., read-out: Urinary level
recorded_metric: concentration at 3 h
In your response, put the unit directly after the numeric value.

According to the records, this compound CCn1cc(C(=O)O)c(=O)c2cc(F)c(N3CCNCC3)cc21 [Compound (II)] displays concentration at 3 h of 9690 ng/mL

----------
# assay_name: Biliary excretion in rats after a single oral administration of 50 mg/kg
# cond: in vivo; rat, 50 mg/kg oral, 0-24 hours, mean ±S.E.; read-out: Biliary excretion, cumulative recovery
recorded_metric: dose excreted at 24 h (%)
Output spec: scalar in %, unitless text.

For reference, reported dose excreted at 24 h for CCn1cc(C(=O)O)c(=O)c2ccc(C)nc21 stands at 1.33

----------
# assay_name: Biliary excretion in rats after a single oral administration of 50 mg/kg
# cond: rat, in vivo, po, 50 mg/kg
dose excreted at 3 h reference
# unit: % | format: bare number

molecule	recorded_metric	unit_label	number
CCn1cc(C(=O)O)c(=O)c2cc(F)c(N3CCNCC3)cc21 [Compound (II)]	dose excreted at 3 h	%	0.6

# dose excreted at 3 h of CCn1cc(C(=O)O)c(=O)c2cnc(N3CCNCC3)nc21 [Pipemidic acid] = 0.6

Cited source for all entries: patent US4146719A
